Hey, just so you know, these numbers are from patent US7354940B2.

- system-under-test: Recombinant human MMP12 catalytic domain (Homo sapiens)
- Construct: Recombinant human MMP12 catalytic domain
- procedure-summary: Isolated enzyme assay (MMP12 enzyme assay)
- condition-details: fluorogenic substrate Mac-Pro-Cha-Gly-Nva-His-Ala-Dpa-NH2, 60 minutes at room temperature, pH 7.3
pIC50: −log10 of the molar value.
// label = Condition met if pIC50 is not less than 8, otherwise Condition not met

Consider the following illustrative entries.
molecule	classification
O=C(CC1NC(=O)NC1=O)NCCc1ccc(-c2cc3ccccc3s2)cc1 (stereo not shown) [Example 27]	Condition met
O=C(CC1NC(=O)NC1=O)NCCc1ccc(-c2ccccc2)cc1 (stereo not shown) [Example 5]	Condition not met
O=C(CC1NC(=O)NC1=O)NCCc1ccc(-c2ccc(F)cc2)cc1 (stereo not shown) [Example 1]	Condition not met

Now turn to the next molecule.
Data request: Please indicate if the recorded pIC50 for COc1cccc(-c2ccc(CCNC(=O)CC3NC(=O)NC3=O)cc2)c1 (stereo not shown) [Example 24] meets or exceeds 8.
Data returned: Condition met

* * *

- system-under-test: Recombinant human MMP12 catalytic domain (Homo sapiens, UniProt P39900)
- Construct: Recombinant human MMP12 catalytic domain
- Sequence (P39900 106-263 limits assumed): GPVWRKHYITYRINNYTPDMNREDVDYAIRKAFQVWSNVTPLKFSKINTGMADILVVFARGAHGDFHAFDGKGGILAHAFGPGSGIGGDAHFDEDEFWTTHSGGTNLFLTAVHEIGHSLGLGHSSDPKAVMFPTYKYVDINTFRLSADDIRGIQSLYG
- procedure-summary: Isolated enzyme assay (MMP12 enzyme assay)
- condition-details: fluorogenic substrate Mac-Pro-Cha-Gly-Nva-His-Ala-Dpa-NH2, 60 minutes at room temperature, pH 7.3
property-measured: IC50 (nM)
A number alone suffices; assume nM.

Worked examples, 5 compounds total:
compound	IC50, nM
CC(=O)c1ccc(-c2ccc(CCNC(=O)CC3NC(=O)NC3=O)cc2)cc1 (stereo not drawn)	17
N#Cc1ccc(-c2ccc(CCNC(=O)CC3NC(=O)NC3=O)cc2)cc1 (stereo not drawn)	7
Cc1cccc(-c2ccc(CCNC(=O)CC3NC(=O)NC3=O)cc2)c1 (stereo not drawn)	15
O=C(CC1NC(=O)NC1=O)NCCc1ccc(-c2cc(Cl)cc(Cl)c2)cc1 (stereo not drawn)	8
O=C(CC1NC(=O)NC1=O)NCCc1ccc(-c2cc3ccccc3o2)cc1 (stereo not drawn)	6

Now consider a different compound.
Data request: Give recorded IC50. O=C(CC1NC(=O)NC1=O)NCCc1ccc(-c2cccs2)cc1 (stereo not drawn)
Data returned: 6
